# ASSAYED TARGET: Voltage-gated potassium channel subunit beta-2 (Rattus norvegicus) (UniProt P62483)
# Sequence (P62483 whole entry, looked up): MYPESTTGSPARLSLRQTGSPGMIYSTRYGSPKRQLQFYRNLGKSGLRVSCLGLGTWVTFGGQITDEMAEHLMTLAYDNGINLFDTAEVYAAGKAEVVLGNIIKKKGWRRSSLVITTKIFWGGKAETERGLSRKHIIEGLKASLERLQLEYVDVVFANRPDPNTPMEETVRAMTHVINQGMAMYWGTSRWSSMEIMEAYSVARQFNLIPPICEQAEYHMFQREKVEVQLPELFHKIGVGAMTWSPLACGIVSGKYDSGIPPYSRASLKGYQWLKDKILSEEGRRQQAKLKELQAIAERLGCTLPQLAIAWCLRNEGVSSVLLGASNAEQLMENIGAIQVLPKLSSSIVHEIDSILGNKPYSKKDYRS
# ASSAY EXPLANATION: KvBeta positive modulators, primary screen, biochemical, NADPH fluorescence (AID 623);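 also: fluorescence intensity change per second fitted from 20 to 320 s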
# CONDITION INFO: Recombinant KvBeta, NADPH fluorescence decrease slope, 10 min; at 10 µM; active compounds read low
Exercise: for every item that follows, state its recorded NADPH fluorescence slope.
Give bare numbers.

Illustrative cases are given below, each with its answer.
- COMPOUND: "CC(CCc1ccco1)NC(=O)Cn1ncc2c1-c1ccccc1OC2 (centres undefined)"
  NADPH fluorescence slope: "-1.5e-05"
- COMPOUND: "CCC1CCCCN1C(=O)CSc1nnc(-c2ccco2)o1 (centres undefined)"
  NADPH fluorescence slope: "-7.3e-05"
- COMPOUND: "COCc1n[nH]c(=S)n1-c1cccc2ccccc12"
  NADPH fluorescence slope: "-4.6e-05"

Hi, could you look up NADPH fluorescence slope for each item in my list?
1. O=C1CC(c2ccccc2)n2nc(N3C(=O)c4ccccc4C3=O)nc2N1 (centres undefined)
2. COc1ccc(N2C(=O)C(Cl)=C(N3CCCC3)C2=O)cc1
3. O=C(NCCC1=CCCCC1)C1CC(=O)N(C2CCCCCC2)C1 (centres undefined)
4. c1ccc2c(N3CCCCC3)nc(N3CCCCC3)nc2c1
5. O=C(NCC(=O)N(c1ccc2c(c1)OCCO2)C(C(=O)NC1CCCC1)c1ccco1)c1ccco1 (centres undefined)
6. O=C(O)C1[C@H]2C(=O)N(Cc3cccs3)C[C@]23C=C[C@H]1O3 (some centres undefined)

*A*
1. -1.7e-05
2. -4.2e-05
3. -6.2e-05
4. -3.5e-05
5. 3.7e-05
6. -8e-05

---

# ASSAY EXPLANATION: inhibitors of mutant huntingtin aggregation, primary screen, imaging, exon1htt(103Q)mCFP cells, high-content imaging (AID 483);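 also: compound exposure lasted 3 days before fixation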
# CONDITION INFO: exon1htt(103Q)mCFP cell line, aggregate imaging, at 2 µM; active compounds read high
Exercise: for every item that follows, state its recorded inhibition of aggregation.
Give bare numbers, in %.

- COMPOUND: "O=C(CCNS(=O)(=O)c1cccs1)Nc1ccccc1F"
  inhibition of aggregation, %: -2.2
- COMPOUND: "O=C(CCN1C(=O)COc2ccccc21)NCCCN1CCN(c2ccccc2F)CC1"
  inhibition of aggregation, %: -1.6
- COMPOUND: "Cc1cc(C)c2c(=O)n(CC(=O)N3CCC(Cc4ccccc4)CC3)sc2n1"
  inhibition of aggregation, %: 3
- COMPOUND: "Cc1nc2sc(C(c3ccco3)N3CCN(c4ccccc4F)CC3)c(O)n2n1 (stereo not drawn)"
  inhibition of aggregation, %: 3.8

Hi, could you look up inhibition of aggregation for each item in my list?
1. CC(=O)N(C(C)=O)c1cccc2c(N(C(C)=O)C(C)=O)cccc12
2. O=C(CC1Oc2ccc(Cl)cc2NC1=O)NC1CCCCCC1 (stereo not drawn)
3. CN(C)S(=O)(=O)c1cccc(C(=O)Nc2cccnc2)c1
4. CCN(CC)S(=O)(=O)N1CCC(C(=O)NC2CCCc3ccccc32)CC1 (stereo not drawn)

*A*
1. 26.2
2. 19.5
3. 0
4. -6.5

Hi, could you look up inhibition of aggregation for each item in my list?
1. Cc1c(C#N)c2ccccc2n1CC(=O)N1CCc2ccccc2C1
2. CCOC(=O)C1CCCN(C(=O)c2cc3c(=O)n4cccc(C)c4nc3n2C)C1 (stereo not drawn)
3. COc1ccc(N2C(N)=C(C#N)C(c3cccnc3)C3=C2CC(C)(C)CC3=O)cc1 (stereo not drawn)

*A*
1: 8.7; 2: 3.5; 3: -1.2

Hi, could you look up inhibition of aggregation for each item in my list?
1. O=C(NCCCNC(=O)c1ccccn1)c1ccccn1
2. O=C(NCc1ccccc1)c1cc(-c2ccco2)on1

*A*
1. -10.1
2. -0.2

Hi, could you look up inhibition of aggregation for each item in my list?
1. O=C(COc1ccccc1)NCC(c1cccs1)N1CCOCC1 (stereo not drawn)
2. CCCN1CCN(CCCNC(=O)C2CCCN(c3nc4ccc(OCC)cc4s3)C2)CC1 (stereo not drawn)
3. CCOc1cccc(/C(O)=C2/C(=O)C(=O)N(CCN3CCOCC3)C2c2cccnc2)c1 (stereo not drawn)

*A*
1. 2
2. 23.6
3. -4.6

Hi, could you look up inhibition of aggregation for each item in my list?
1. Cc1ccccc1OCc1nnc2n1CC(C)S2 (stereo not drawn)
2. CCOC(=O)c1cc(-c2ccc(N)cc2)sc1N
3. CC1(C)CC(=O)c2cnc(NC(=O)Cc3ccc(Cl)cc3)nc2C1

*A*
-4.9
24
-0.3

Hi, could you look up inhibition of aggregation for each item in my list?
1. CCCCCc1c(C)nc(N2CCc3ccccc32)[nH]c1=O
2. CC(C)CNS(=O)(=O)c1ccc(OCC(=O)Nc2ccc3c(c2)OCO3)c(Cl)c1
3. COC(=O)c1cn(C(=O)c2ccc(Br)o2)c2ccccc12
4. O=c1ccc(S(=O)(=O)N2CCC(Cc3ccccc3)CC2)c[nH]1
5. C=CCn1c(SCc2ccc(C#N)cc2)nnc1-c1cccc(Cl)c1
6. CC(C)c1nnc(NC(=O)c2ccc(N3C(=O)CCC3=O)cc2)s1

*A*
1: -1.3; 2: -1.9; 3: 17.4; 4: -8.8; 5: 10.7; 6: 13.9

Hi, could you look up inhibition of aggregation for each item in my list?
1. COc1ccc(CN2C(=O)[C@@H]3C(c4ccc(F)cc4)=NO[C@@H]3C2=O)cc1
2. Cc1cc(Cl)c(S(=O)(=O)Nc2ccc3c(c2)OCCO3)cc1OCC(N)=O

*A*
1: -8.2; 2: -7.1

*Q* Tell me the measured inhibition of aggregation of CCCSc1nnc(N2C(=O)CC(c3ccsc3)C3=C2CCCC3=O)s1 (stereo not drawn) , please.
*A* 24.3

---

# ASSAY EXPLANATION: inhibitors of E-selectin induction by TNFa, primary screen, imaging, HUVEC, immunofluorescence, MLSMR starter and 10KST1 sets (AID 487);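 also: signal is fraction of cell area covered by stained E-selectin grains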
# CONDITION INFO: HUVEC TNFalpha-induced E-selectin immunofluorescence imaging, at 2 µM; active compounds read high
# binarize inhibition: threshold -60% inclusive, high side Criterion met, low side Criterion not met

Recorded results for 6 compounds are shown here.
- COMPOUND: "CN(C(=O)C1CCCO1)c1nnc(-c2ccncc2)s1 (stereo unspecified)"
  CLASS ASSIGNMENT: "Criterion met"
- COMPOUND: "O=c1[nH]c(NCc2ccccc2)nc2c1CCCC2"
  CLASS ASSIGNMENT: "Criterion met"
- COMPOUND: "CCN1CCN(CCCNC(=O)C2c3ccccc3C(=O)N(C)C2c2ccc(OC)cc2)CC1 (stereo unspecified)"
  CLASS ASSIGNMENT: "Criterion met"
- COMPOUND: "CCN(CC)C(=O)C1CCN(c2ncnc3c2cnn3-c2ccc(C)cc2C)CC1"
  CLASS ASSIGNMENT: "Criterion met"
- COMPOUND: "COc1ccccc1C1/C(=C(/O)c2ccc(OC(C)C)cc2)C(=O)C(=O)N1c1cc(C)on1 (stereo unspecified)"
  CLASS ASSIGNMENT: "Criterion not met"
- COMPOUND: "CCOC(=O)C1CCN(C(=O)C2(NC(=O)Nc3ccccc3Cl)CCCCC2)CC1"
  CLASS ASSIGNMENT: "Criterion met"

*Q* Assess whether reported inhibition for Cn1c(=O)n(Cc2ccc(F)cc2)c(=O)c2c1nc1n2CCCN1Cc1ccccc1 sits at -60% or higher.
*A* Criterion met

*Q* Assess whether reported inhibition for O=C(CCS(=O)(=O)c1cccc2nsnc12)NCc1ccccc1 sits at -60% or higher.
*A* Criterion met

*Q* Assess whether reported inhibition for Cc1onc(-c2ccccc2)c1C(=O)Nc1ccc(S(=O)(=O)N2CCCCC2)cc1 sits at -60% or higher.
*A* Criterion met

*Q* Assess whether reported inhibition for COc1cccc(C2=NOC(C(=O)N3CCN(c4ccccc4)CC3)C2)c1OC (stereo unspecified) sits at -60% or higher.
*A* Criterion met

*Q* Assess whether reported inhibition for C=CCn1c(SCc2ccc(C#N)cc2)nnc1-c1cccc(Cl)c1 sits at -60% or higher.
*A* Criterion not met

*Q* Assess whether reported inhibition for Cc1cc(Cl)ccc1OCCCC(=O)NO sits at -60% or higher.
*A* Criterion met

*Q* Assess whether reported inhibition for CC12CN3CC(C)(CN(C1)C3c1cc(Br)ccc1O)C2=O (stereo unspecified) sits at -60% or higher.
*A* Criterion met

*Q* Assess whether reported inhibition for O=C1CC(N2CCN(C3CCc4ccccc4C3)CC2)C(=O)N1c1ccccc1 (stereo unspecified) sits at -60% or higher.
*A* Criterion met

*Q* Assess whether reported inhibition for Clc1ccccc1CN(Cc1ccccc1)c1ncnc2nc[nH]c12 sits at -60% or higher.
*A* Criterion met

*Q* Assess whether reported inhibition for COc1ccccc1-c1nnc2n1N=C(c1ccc(O)c(O)c1)CS2 sits at -60% or higher.
*A* Criterion not met

*Q* Assess whether reported inhibition for O=C(CSc1nnc(-c2ccccc2)o1)N1CCN(c2ccccc2)CC1 sits at -60% or higher.
*A* Criterion not met

*Q* Assess whether reported inhibition for CNC(=O)c1nnn(Cc2ccccc2)c1NC(C)=O sits at -60% or higher.
*A* Criterion not met

*Q* Assess whether reported inhibition for Cn1c(N2CCN(c3ccccn3)CC2)nc2c1c(=O)n(Cc1ccccc1Cl)c(=O)n2C sits at -60% or higher.
*A* Criterion met

*Q* Assess whether reported inhibition for O=C(c1ccc(=O)oc1)N1CCN(C(c2ccccc2)c2ccccc2)CC1 sits at -60% or higher.
*A* Criterion met

*Q* Assess whether reported inhibition for CCOC(=O)c1[nH]c2ccccc2c1N=CN(CC)CC sits at -60% or higher.
*A* Criterion not met

The origin of these recorded values is PubChem BioAssay.
